Where do these numbers come from? They come from patent US20240277698A1.

- Assay: MAD study: urine pharmacokinetics
- Type: in vivo, human
- Design: unit not given here
- Conditions used: human, urine, oral, 2.5 mg, 2.5 mg QD, low salt diet; mean; read-out: CLR, D 10 (renal clearance, Day 10) (converted)
Outcome measure: CL renal
The reply should be a number, written without any unit.

q: Please report CL renal for the following compound: CCC(=O)N[C@@H]1CCCc2c(-c3ccc4c(c3)CCC(=O)N4C)cncc21 [(R)-Compound 1]
a: 0.0085

----------
- Assay: Relative bioavailability of tablet versus oral solution, single 5 mg dose
- Type: in vivo, human
- Conditions used: human, plasma, po, 5 mg, oral solution, read-out: AUC0-t, Mean
Outcome measure: AUC(0-t) (ng·h/mL)
Could you give me the number in ng·h/mL? Just the number is fine.

q: Entry CCC(=O)N[C@@H]1CCCc2c(-c3ccc4c(c3)CCC(=O)N4C)cncc21 [(R)-Compound 1] needs its AUC(0-t) filled in; supply it.
a: 1650

----------
- Assay: Single-ascending dose (SAD) study in healthy subjects: plasma and urine pharmacokinetics
- Conditions used: human, in vivo, po, 3 mg
Outcome measure: half-life (h)
State just the number; it will be interpreted in h.

q: Respond only with half-life recorded for CCC(=O)N[C@@H]1CCCc2c(-c3ccc4c(c3)CCC(=O)N4C)cncc21 [(R)-Compound 1]
a: 29.1

----------
- Conditions used: human, plasma, Compound 1 plasma AUC0-72, Mean (SD), Treatment B: 10 mg Compound 1 with single 1000 mg metformin
Outcome measure: AUC(0-t) (ng·h/mL)
Reply with just the number (in ng·h/mL).

q: Supply recorded AUC(0-t) for CCC(=O)NC1CCCc2c(-c3ccc4c(c3)CCC(=O)N4C)cncc21 (stereo not shown) here.
a: 2870

----------
- Assay: Multiple-ascending dose (MAD) study, once daily for 10 days in healthy subjects: plasma pharmacokinetics
- Type: in vivo, human
- Conditions used: human, plasma, oral, 2.5 mg, 2.5 mg QD, normal salt diet; Day 1; median (min, max); read-out: Tmax, D 1
Outcome measure: Tmax (h)
Report as a plain number; the unit h is understood.

q: Please look at this compound and report its Tmax: CCC(=O)N[C@@H]1CCCc2c(-c3ccc4c(c3)CCC(=O)N4C)cncc21 [(R)-Compound 1]
a: 3

----------
- Assay: Relative bioavailability of tablet versus oral solution, single 5 mg dose
- Type: in vivo, human
- Conditions used: human, plasma, oral, 5 mg, tablet, read-out: AUC0-t, Mean
Outcome measure: AUC(0-t) (ng·h/mL)
Enter your answer as a number in ng·h/mL; do not include the unit.

q: Return reported AUC(0-t). Input compound: CCC(=O)N[C@@H]1CCCc2c(-c3ccc4c(c3)CCC(=O)N4C)cncc21 [(R)-Compound 1]
a: 1620

----------
- Assay: Single-ascending dose (SAD) study in healthy subjects: plasma and urine pharmacokinetics
- Conditions used: human, in vivo, po, 360 mg
Outcome measure: half-life (h)
Dear colleague, please return just the value in h, with no unit written.

q: Item CCC(=O)N[C@@H]1CCCc2c(-c3ccc4c(c3)CCC(=O)N4C)cncc21 [(R)-Compound 1] : provide half-life
a: 27.8

----------
- Assay: clinical
- Conditions used: human, in vivo, 1000 mg, Metformin plasma AUC0-t, Mean (SD)
Outcome measure: AUC(0-t) (ng·h/mL)
Numbers only here, please. The scale is ng·h/mL.

q: Give recorded AUC(0-t). CN(C)C(=N)N=C(N)N
a: 11200
